Value source: paper PMC4535766

Measured IC50 accompanies every entry in the list below.
System: intracellular amastigotes of L. donovani strain MHOM-ET-67/L82
Experiment: Activity against Leishmania donovani intracellular amastigotes in mouse peritoneal macrophages
Conditions: Leishmania donovani, Peritoneal macrophage, in Mus musculus, 96 h, read-out: IC50 L. don. intracell

Use these answered entries as a reference point.
CN(C)CCCN1c2ccccc2Sc2ccccc21 : > 35.2 µM
Clc1ccc(C(Cn2ccnc2)OCc2ccsc2Cl)c(Cl)c1 (centres unmarked) : 13.1 µM
CNCCC=C1c2ccccc2CCc2ccccc21 : > 11.4 µM
Clc1ccc(C(OCCN2CCCCC2)c2ccccc2)cc1 (centres unmarked) : > 30.3 µM

Shift focus to the following entry.
Request the reported IC50 associated with CN(C)CCCN1c2ccccc2Sc2ccc(Cl)cc21
> 9.41 µM
